- method: Pharmacokinetics of BUP and HBUP after intravenous BUP in rats
- Assay type: in vivo, rat
- experimental-parameters: male, Sprague-Dawley, rat, plasma and urine, iv, 5 mg/kg, i.v. 5 mg/kg BUP, 1,25(OH)2D3-treated rats
measurement-kind: CL renal (mL/min/kg)
Numbers only, in mL/min/kg.

Prompt: Quick one: CL renal of CC(NC(C)(C)C)C(=O)c1cccc(Cl)c1 (stereo not shown) [BUP, bupropion] ?
Response: 1.05

====

- method: Pharmacokinetics of BUP and HBUP after intravenous BUP in rats
- Type: in vivo, rat
- experimental-parameters: male, Sprague-Dawley, rat, plasma, iv, 5 mg/kg, i.v. 5 mg/kg BUP, 1,25(OH)2D3-treated rats; read-out: Vss
measurement-kind: Vd (L/kg)
One number for each entry, in L/kg.

Prompt: Quick one: Vd of CC(NC(C)(C)C)C(=O)c1cccc(Cl)c1 (stereo not shown) ?
Response: 5.4

====

- method: Pharmacokinetics of TOL and HTOL after intravenous TOL in rats
- Type: in vivo, rat
- experimental-parameters: male, Sprague-Dawley, rat, plasma, iv, 2 mg/kg, i.v. 2 mg/kg TOL, 1,25(OH)2D3-treated rats
measurement-kind: clearance (mL/min/kg)
One number for each entry, in mL/min/kg.

Prompt: Quick one: clearance of CCCCNC(=O)NS(=O)(=O)c1ccc(C)cc1 [TOL, tolbutamide] ?
Response: 0.206

====

- method: Pharmacokinetics of BUP and HBUP after intravenous BUP in rats
- Type: in vivo, rat
- experimental-parameters: male, Sprague-Dawley, rat, plasma, iv, 5 mg/kg, i.v. 5 mg/kg BUP, 1,25(OH)2D3-treated rats
measurement-kind: clearance (mL/min/kg)
One number for each entry, in mL/min/kg.

Prompt: Quick one: clearance of CC(NC(C)(C)C)C(=O)c1cccc(Cl)c1 (stereo not shown) ?
Response: 54.6

====

- method: Pharmacokinetics of TOL and HTOL after intravenous TOL in rats
- Assay type: in vivo, rat
- experimental-parameters: male, Sprague-Dawley, rat, plasma, iv, 2 mg/kg, i.v. 2 mg/kg TOL, 1,25(OH)2D3-treated rats
measurement-kind: half-life (h)
Give bare numbers, in h.

Prompt: Quick one: half-life of CCCCNC(=O)NS(=O)(=O)c1ccc(C)cc1 [TOL, tolbutamide] ?
Response: 9.4

====

- method: Pharmacokinetics of TOL and HTOL after intravenous TOL in rats
- Type: in vivo, rat
- experimental-parameters: male, Sprague-Dawley, rat, plasma, iv, 2 mg/kg, i.v. 2 mg/kg TOL, control rats; read-out: Vss
measurement-kind: Vd (L/kg)
Give bare numbers, in L/kg.

Prompt: Quick one: Vd of CCCCNC(=O)NS(=O)(=O)c1ccc(C)cc1 [TOL, tolbutamide] ?
Response: 0.12

====

- method: Pharmacokinetics of BUP and HBUP after intravenous BUP in rats
- Assay type: in vivo, rat
- experimental-parameters: male, Sprague-Dawley, rat, plasma, iv, 5 mg/kg, i.v. 5 mg/kg BUP, control rats, n = 6-7; read-out: AUC (converted)
measurement-kind: AUC (ng·h/mL)
Numbers only, in ng·h/mL.

Prompt: Quick one: AUC of CC(NC(C)(C)C)C(=O)c1cccc(Cl)c1 (stereo not shown) [BUP, bupropion] ?
Response: 906

====

- method: Pharmacokinetics of BUP and HBUP after intravenous BUP in rats
- Type: in vivo, rat
- experimental-parameters: male, Sprague-Dawley, rat, plasma, iv, 5 mg/kg, i.v. 5 mg/kg BUP, control rats
measurement-kind: clearance (mL/min/kg)
Numbers only, in mL/min/kg.

Prompt: Quick one: clearance of CC(NC(C)(C)C)C(=O)c1cccc(Cl)c1 (stereo not shown) ?
Response: 93.6

src = paper PMC7700423
